# tested-target: CYP11A1 (Homo sapiens)
# Construct: human H295R adrenocortical carcinoma cell line was used as source of enzyme; endogenous in cells
# Sequence (P05108 40-521): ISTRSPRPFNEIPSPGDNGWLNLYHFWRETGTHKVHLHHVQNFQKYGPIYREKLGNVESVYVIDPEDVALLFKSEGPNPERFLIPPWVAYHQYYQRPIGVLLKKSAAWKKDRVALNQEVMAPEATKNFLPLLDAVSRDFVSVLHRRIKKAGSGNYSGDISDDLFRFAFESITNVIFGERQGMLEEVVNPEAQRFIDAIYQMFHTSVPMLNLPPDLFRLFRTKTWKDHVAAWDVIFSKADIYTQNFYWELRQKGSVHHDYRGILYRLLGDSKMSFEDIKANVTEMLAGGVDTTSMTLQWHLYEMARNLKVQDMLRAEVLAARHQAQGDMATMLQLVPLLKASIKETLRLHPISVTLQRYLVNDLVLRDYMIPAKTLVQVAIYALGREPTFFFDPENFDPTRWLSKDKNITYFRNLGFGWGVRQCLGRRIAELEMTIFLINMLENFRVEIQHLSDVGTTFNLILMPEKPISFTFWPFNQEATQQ
# assay-comment: CYP11A1 inhibition: modified isocaproic acid release assay (IARA) in H295R cells
# setup-conditions: human H295R adrenocortical carcinoma cells treated three days, 3 nM [24,25-3H]-labelled cholesterol, 1% DMSO, 10 concentrations in duplicates; read-out: IC50 of the test compounds on CYP11A1 inhibition
pIC50: −log10 of the molar value.
Reported pIC50 values for the following compounds.

Below are worked cases with known answers.
compound | tested-target | reported
O=c1cc(CN2Cc3ccccc3C2)occ1OCc1ccc(C(F)(F)F)nc1 | CYP11A1 (Homo sapiens) | 5.70 to 6.52
CS(=O)(=O)N[C@@H]1CC[C@H](COc2coc(CN3Cc4ccccc4C3)cc2=O)C1 (relative stereo) | CYP11A1 (Homo sapiens) | 6.52 to 6.82
O=C(c1ccc(COc2coc(CN3Cc4ccc(F)cc4C3)cc2=O)cc1)N1CC(F)(F)C1 | CYP11A1 (Homo sapiens) | 6.52 to 6.82
COc1ccc2c(c1)CN(Cc1cc(=O)c(OCc3ccc(C(=O)N(C)C)cc3)co1)C2 | CYP11A1 (Homo sapiens) | > 6.82

[ask] For the compound shown here, CSc1ccc2c(c1)CN(Cc1cc(=O)c(OCc3ccc(S(C)(=O)=O)cc3)co1)C2 , give the reported pIC50.
[reply] 6.52 to 6.82

[ask] Try this compound next: CC(C)S(=O)(=O)N1CC=C(COc2coc(CN3Cc4ccccc4C3)cc2=O)CC1
[reply] 6.52 to 6.82

[ask] Next compound up: O=c1cc(CN2Cc3ccc(C(F)(F)F)cc3C2)occ1OCC1CCN(S(=O)(=O)C2COC2)CC1 [Compound 69a]
[reply] > 6.82

[ask] Same lookup for O=c1cc(CN2Cc3ccccc3C2)occ1OCc1ccc(SC(F)(F)F)cc1 , please.
[reply] 5.70 to 6.52
